assay: in vitro; type: cell-based; settings: human, HepG2 or HepG2.117 cells, 3-days incubation (unmarked values), ATPlite viability, mean value
Assign CC50 at 3 days to each entry below.

# Compound, CC50 at 3 days
rows = [
    ("CNC(=O)c1ccc(-n2c(NC(C)C)nc3c(c2=O)C[C@@H](C)N(C(=O)c2ccc(Cl)c(C(F)(F)F)c2)C3)nc1", "> 50 µM"),
    ("CNC(=O)c1ccc(-n2c(NC(C)(C)C)nc3c(c2=O)C[C@@H](C)N(C(=O)c2ccc(Cl)c(C(F)(F)F)c2)C3)c(Cl)c1 (single isomer, unassigned) [Compound C677a]", "> 50 µM"),
]

Query: Fill blank: measured CC50 at 3 days of the compound `CC(C)NC(=O)c1cnc(-n2c(NC(C)C)nc3c(c2=O)C[C@@H](C)N(C(=O)c2ccc(Cl)c(C(F)(F)F)c2)C3)cn1` is ____.
Response: > 50 µM

* * *

test system: HBV (HepG2.117 cell line, inducibly HBV producing); experiment: Anti-HBV activity: intracellular HBV DNA by real-time PCR in HepG2.117 cells after 3 days of treatment; assay type: cell-based, hepatitis B virus; settings: Hepatitis B virus, HepG2.117, 72 h, HepG2.117 cells, 3 days of treatment, intracellular HBV DNA by real-time PCR; mean value; read-out: EC50 (μM, mean value)
Mark each entry yes if its EC50 sits below 1 µM, and no for all others.

# Compound, Class Label
data = [
    ("CC(C)Nc1nc2c(c(=O)n1-c1ccc(S(C)(=O)=O)cc1)CCN(C(=O)c1ccc(C(F)(F)F)nc1)C2 [Compound C367]", "no"),
    ("CCOC(=O)c1ccc(-n2c(NCc3ccc(OC)cc3)nc3c(c2=O)CCN(C(=O)c2ccc(Cl)c(Cl)c2)C3)cc1 [Compound C121]", "no"),
    ("CC(C)Nc1nc2c(c(=O)n1-c1ccc(S(C)(=O)=O)cc1)CCN(C(=O)c1ccc3scnc3c1)C2 [Compound C366]", "no"),
]

Query: Lab note: confirm whether the reported EC50 for this compound is below 1 µM, equality not counting. compound: CNC(=O)c1ccc(-n2c(NCc3ccc4cc[nH]c4c3)nc3c(c2=O)C[C@@H](C)N(C(=O)c2ccc(Cl)c(Cl)c2)C3)cc1 [Compound C325]
Response: yes

Query: Same question, CNC(=O)c1ccc(-n2c(NC(C)C)nc3c(c2=O)C[C@@H](C)N(C(=O)c2ccc(Cl)c(Cl)c2)C3)cc1F [Compound C274] this time
Response: yes

Query: Please do the same for CNC(=O)c1ccc(-n2c(N(C)C34CC(C3)C4)nc3c(c2=O)C[C@@H](C)N(C(=O)c2ccc(Cl)c(Cl)c2)C3)cc1 [Compound C345] as well.
Response: yes

Query: And the next one, CNC(=O)c1ccc(-n2c(NC(C)C)nc3c(c2=O)C[C@@H](C)N(C(=O)c2ccc(Cl)c(Cl)c2)C3)c(C)c1 [Compound C300a] ?
Response: yes

Query: What do we get for CC(C)Nc1nc2c(c(=O)n1-c1ccc(S(C)(=O)=O)cc1)CCN(C(=O)c1ccc3cncn3c1)C2 [Compound C356] ?
Response: no

Query: // query: CC(C)Nc1nc2c(c(=O)n1-c1ccc(S(C)(=O)=O)cc1)CCN(C(=O)c1ccc3occc3c1)C2 [Compound C132]
Response: yes

Query: Can you check COc1cccc(CNc2nc3c(c(=O)n2-c2ccccc2OC)CCN(C(=O)c2ccc(Cl)c(Cl)c2)C3)c1 [Compound C18] next?
Response: no

Query: Item: COc1ccc(CNc2nc3c(c(=O)[nH]2)CC(c2ccc(F)cc2)N(C(=O)c2ccc(Cl)c(Cl)c2)C3)cc1 (stereo not shown) [Compound C94]
Response: yes

Query: One more compound: CC(C)Nc1nc2c(c(=O)n1-c1ccc(S(C)(=O)=O)cc1)CCN(C(=O)c1cc3ccccc3o1)C2 [Compound C152]
Response: no

Query: Follow-up item: COc1ccc(CNc2nc3c(c(=O)n2-c2ccccc2OC)CCN(C(=O)c2ccc(Cl)c(Cl)c2)C3)cc1 [Compound C1]
Response: no

Query: Now consider COc1ccccc1-n1c(NC(C)c2ccncc2)nc2c(c1=O)CCN(C(=O)c1ccc(Cl)c(Cl)c1)C2 (stereo not shown) [Compound C56] and answer again.
Response: no

Query: Ok, now CNC(=O)c1ccc(-n2c(N[C@@H](C)C3CC3)nc3c(c2=O)C[C@@H](C)N(C(=O)c2ccc(Cl)c(C(F)F)c2)C3)cc1 [Compound C699]
Response: yes

Query: Same question for COc1ccc(CNc2nc3c(c(=O)[nH]2)CCN(C(=O)c2ccc(Cl)cc2)C3)cc1 [Compound C115] please.
Response: no

Query: Thanks! And COc1ccc(CNc2nc3c(c(=O)n2-c2ccccc2OC)C[C@@H](C)N(C(=O)c2ccc(Cl)c(Cl)c2)C3)cc1 (single isomer, unassigned) [Compound C36Aa] ?
Response: yes

Query: Now this one: CC(C)Nc1nc2c(c(=O)n1-c1ccc(N3CC[C@@H](O)C3)cc1)C[C@@H](C)N(C(=O)c1ccc(Cl)c(Cl)c1)C2 [Compound C201]
Response: yes

Query: Could you do the same for COc1ccc(CNc2nc3c(c(=O)n2C)CCN(C(=O)c2ccc(Cl)c(Cl)c2)C3)cc1 [Compound C52] , please?
Response: no

Query: Another: CNC(=O)c1ccc(-n2c(N3CCC[C@H]3C)nc3c(c2=O)C[C@@H](C)N(C(=O)c2ccc(Cl)c(Cl)c2)C3)cc1 [Compound C252]
Response: yes

Query: Follow-up entry: COc1ccc(CNc2nc3c(c(=O)n2-c2ccc(N4CCC(NC(=O)OC(C)(C)C)C4)cc2)CCN(C(=O)c2ccc(Cl)c(Cl)c2)C3)cc1 (stereo not shown) [Compound C161]
Response: no
